study_system: Retinoic acid receptor beta (Homo sapiens) (UniProt P10826)
Sequence (whole entry): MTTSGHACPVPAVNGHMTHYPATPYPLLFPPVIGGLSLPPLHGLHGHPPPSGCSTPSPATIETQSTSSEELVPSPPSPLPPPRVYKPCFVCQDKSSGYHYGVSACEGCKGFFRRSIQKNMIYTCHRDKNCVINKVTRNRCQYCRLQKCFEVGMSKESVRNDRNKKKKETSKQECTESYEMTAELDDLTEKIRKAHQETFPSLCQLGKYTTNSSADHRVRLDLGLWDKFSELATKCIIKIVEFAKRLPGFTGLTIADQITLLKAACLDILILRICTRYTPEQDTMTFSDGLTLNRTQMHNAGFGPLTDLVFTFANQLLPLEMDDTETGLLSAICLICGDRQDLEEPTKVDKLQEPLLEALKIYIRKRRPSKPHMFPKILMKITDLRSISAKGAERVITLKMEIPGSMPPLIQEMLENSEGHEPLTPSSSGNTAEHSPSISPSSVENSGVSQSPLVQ
measurement_description: Transactivation of Gal4-fused RARbeta (unknown origin) expressed in African green monkey COS1 cells at 100 nM by luciferase reporter gene assay relative to DMSO-treated control
Type: cell-based
experimental_parameters: COS-1
Reported fold change (FC) by item:
measured_quantity: fold change (FC)

smi | measured_quantity | number
O=C(O)c1ccc(NC(=O)c2cc3c4c(c2)CCCC4CCC3)cc1 | fold change (FC) | 18
COc1cc(NC(=O)c2cc3c4c(c2)CCCC4(C)CCC3)ccc1C(=O)O | fold change (FC) | 3
COc1cc(NC(=O)c2cc3c4c(c2)CCCCC4CCCC3)ccc1C(=O)O | fold change (FC) | 1
CC12CCCc3cc(C(=O)Nc4ccc(C(=O)O)s4)cc(c31)CCC2 | fold change (FC) | 1
CC12CCCc3cc(C(=O)Nc4ccc(C(=O)O)cc4)cc(c31)CCC2 | fold change (FC) | 20
CC12CCCc3cc(C(=O)Nc4ccc(C(=O)O)c(F)c4)cc(c31)CCC2 | fold change (FC) | 13
CC12CCCc3cc(C(=O)Nc4ccc(C(=O)O)c(Cl)c4)cc(c31)CCC2 | fold change (FC) | 8
O=C(Nc1ccc(C(=O)O)c(F)c1)c1cc2c3c(c1)CCCC3CCC2 | fold change (FC) | 7
CC12CCCc3cc(NC(=O)c4ccc(C(=O)O)cn4)cc(c31)CCC2 | fold change (FC) | 26
O=C(O)c1ccc(C(=O)Nc2cc3c4c(c2)CCCC4CCC3)cc1 | fold change (FC) | 5

###

System: HL-60
measurement_description: Induction of human HL60 cell differentiation into myeloid cells at 100 nM after 4 days by NBT reduction assay relative to control
Format: functional
Mark NO for Activity values under 40%, and YES for everything at or above.

smi | qualitative_label
O=C(O)c1ccc(NC(=O)c2cc3c4c(c2)CCCC4CCC3)nc1 | YES
COc1cc(NC(=O)c2cc3c4c(c2)CCCC4CCC3)ccc1C(=O)O | NO
O=C(O)c1ccc(C(=O)Nc2cc3c4c(c2)CCCC4CCC3)cc1 | NO
CC12CCCc3cc(C(=O)Nc4ccc(C(=O)O)c(Cl)c4)cc(c31)CCC2 | NO
CC12CCCc3cc(C(=O)Nc4ccc(C(=O)O)c(O)c4)cc(c31)CCC2 | NO
O=C(O)c1ccc(NC(=O)c2cc3c4c(c2)CCCC4CCC3)cc1 | NO
O=C(Nc1ccc(C(=O)O)c(O)c1)c1cc2c3c(c1)CCCC3CCC2 | YES
O=C(O)c1ccc(C(=O)Nc2cc3c4c(c2)CCCC4CCC3)nc1 | NO
O=C(O)c1ccc(C(=O)Nc2cc3c4c(c2)CCCCC4CCCC3)cc1 | YES
O=C(O)c1ccc(C(=O)Nc2cc3cc(c2)CCCCCCCCCC3)cc1 | NO
O=C(Nc1ccc(C(=O)O)c(F)c1)c1cc2c3c(c1)CCCC3CCC2 | YES
O=C(Nc1ccc(C(=O)O)c(F)c1)c1cc2c3c(c1)CCCCC3CCCC2 | YES
CC1=C(/C=C/C(C)=C/C=C/C(C)=C/C(=O)O)C(C)(C)CCC1 | YES
CC1(C)CCC(C)(C)c2cc(NC(=O)c3ccc(C(=O)O)cc3)ccc21 | YES
CC12CCCc3cc(C(=O)Nc4ccc(C(=O)O)c(F)c4)cc(c31)CCC2 | NO
O=C(Nc1ccc(C(=O)O)c(Cl)c1)c1cc2c3c(c1)CCCCC3CCCC2 | NO
COc1cc(NC(=O)c2cc3c4c(c2)CCCC4(C)CCC3)ccc1C(=O)O | NO
CC12CCCc3cc(NC(=O)c4ccc(C(=O)O)cn4)cc(c31)CCC2 | NO
O=C(O)c1ccc(NC(=O)c2cc3cc(c2)CCCCCCCCCC3)cc1 | NO
O=C(Nc1ccc(C(=O)O)c(Cl)c1)c1cc2c3c(c1)CCCC3CCC2 | NO
CC12CCCc3cc(C(=O)Nc4ccc(C(=O)O)cn4)cc(c31)CCC2 | YES

###

Test system: HL-60
measurement_description: Induction of human HL60 cell differentiation into myeloid cells at 10 nM after 4 days by NBT reduction assay relative to control
Assay type: functional
Each record's class is read off its Activity using these ranges: lower range: < 20%; middle range: ≥ 20% and < 30%; upper range: ≥ 30%

smi | qualitative_label
CC12CCCc3cc(C(=O)Nc4ccc(C(=O)O)cc4)cc(c31)CCC2 | upper range
CC1=C(/C=C/C(C)=C/C=C/C(C)=C/C(=O)O)C(C)(C)CCC1 | upper range
O=C(O)c1ccc(NC(=O)c2cc3c4c(c2)CCCC4CCC3)cc1 | middle range
O=C(Nc1ccc(C(=O)O)c(F)c1)c1cc2c3c(c1)CCCC3CCC2 | upper range
O=C(O)c1ccc(C(=O)Nc2cc3c4c(c2)CCCC4CCC3)nc1 | lower range
O=C(O)c1ccc(NC(=O)c2cc3c4c(c2)CCCC4CCC3)nc1 | upper range
CC12CCCc3cc(C(=O)Nc4ccc(C(=O)O)cn4)cc(c31)CCC2 | upper range
O=C(O)c1ccc(C(=O)Nc2cc3c4c(c2)CCCC4CCC3)cc1 | lower range
COc1cc(NC(=O)c2cc3c4c(c2)CCCC4(C)CCC3)ccc1C(=O)O | lower range
CC12CCCc3cc(C(=O)Nc4ccc(C(=O)O)c(O)c4)cc(c31)CCC2 | lower range
O=C(O)c1ccc(NC(=O)c2cc3c4c(c2)CCCCC4CCCC3)cc1 | upper range
O=C(O)c1ccc(C(=O)Nc2cc3cc(c2)CCCCCCCCCC3)cc1 | lower range
CC12CCCc3cc(NC(=O)c4ccc(C(=O)O)cc4)cc(c31)CCC2 | lower range
O=C(Nc1ccc(C(=O)O)c(O)c1)c1cc2c3c(c1)CCCC3CCC2 | middle range
CC12CCCc3cc(NC(=O)c4ccc(C(=O)O)cn4)cc(c31)CCC2 | lower range
O=C(Nc1ccc(C(=O)O)c(O)c1)c1cc2c3c(c1)CCCCC3CCCC2 | middle range
CC12CCCc3cc(C(=O)Nc4ccc(C(=O)O)c(F)c4)cc(c31)CCC2 | lower range
O=C(Nc1ccc(C(=O)O)c(Cl)c1)c1cc2c3c(c1)CCCCC3CCCC2 | lower range
COc1cc(NC(=O)c2cc3c4c(c2)CCCC4CCC3)ccc1C(=O)O | lower range
CC12CCCc3cc(C(=O)Nc4ccc(C(=O)O)c(Cl)c4)cc(c31)CCC2 | lower range
O=C(Nc1ccc(C(=O)O)c(F)c1)c1cc2c3c(c1)CCCCC3CCCC2 | middle range
CC1(C)CCC(C)(C)c2cc(NC(=O)c3ccc(C(=O)O)cc3)ccc21 | upper range
O=C(Nc1ccc(C(=O)O)c(Cl)c1)c1cc2c3c(c1)CCCC3CCC2 | lower range
O=C(O)c1ccc(C(=O)Nc2cc3c4c(c2)CCCCC4CCCC3)cc1 | lower range

###

Reported fold change (FC) by item:
study_system: Retinoic acid receptor gamma (Homo sapiens)
measurement_description: Transactivation of Gal4-fused RARgamma (unknown origin) expressed in African green monkey COS1 cells at 100 nM by luciferase reporter gene assay relative to DMSO-treated control
Assay type: cell-based
experimental_parameters: COS-1

smi | fold change (FC)
O=C(O)c1ccc(C(=O)Nc2cc3c4c(c2)CCCC4CCC3)nc1 | 7
O=C(O)c1ccc(C(=O)Nc2cc3c4c(c2)CCCC4CCC3)s1 | 1
O=C(Nc1ccc(C(=O)O)c(Cl)c1)c1cc2c3c(c1)CCCC3CCC2 | 1
O=C(Nc1cc2c3c(c1)CCCC3CCC2)c1ccc(C(=O)O)nc1 | 1
O=C(O)c1ccc(C(=O)Nc2cc3cc(c2)CCCCCCCCCC3)cc1 | 1
O=C(Nc1ccc(C(=O)O)c(F)c1)c1cc2c3c(c1)CCCCC3CCCC2 | 5
CC12CCCc3cc(C(=O)Nc4ccc(C(=O)O)c(Cl)c4)cc(c31)CCC2 | 1
O=C(Nc1ccc(C(=O)O)c(F)c1)c1cc2c3c(c1)CCCC3CCC2 | 2
